Reported abundance fitness by item:
B1: Dystrobrevin alpha, residues 235 to 294; numbered along this chain, Q9Y4J8 (parent)
chain: ENVFHPVECSYCHSESMMGFRYRCQQCHNYQLCQDCFWRGHAGGSHSNQHQMKEYTSWKS

# Variants of: B1
# protocol text: abundance fitness (aPCA) (normalised: wild type 0, dead -1); higher = more abundant; growth selection in yeast, the domain comes from the species named
# condition set: Homo sapiens
When you answer, write just the number.

{"mutation id": "Q51W", "abundance fitness": -0.517}
{"mutation id": "L32M", "abundance fitness": -0.793}
{"mutation id": "F20A", "abundance fitness": 0.224}
{"mutation id": "C24H", "abundance fitness": -0.887}
{"mutation id": "E8Y", "abundance fitness": -0.157}
{"mutation id": "H46T", "abundance fitness": -0.219}
{"mutation id": "V3Q", "abundance fitness": 0.106}
{"mutation id": "Y55S", "abundance fitness": 0.245}

Query block: I'd like to know its abundance fitness. The variant in question is `K59F`
Result block: -0.142

Query block: Looking for the measured abundance fitness of `E8P` , can you help?
Result block: -0.001

Query block: Find the recorded abundance fitness belonging to `V7A` and report it.
Result block: 0.063
